The binders listed here are annotated with their EC50.
# EXPERIMENTAL SYSTEM: T1, cynomolgus monkey C-MET on stably transfected CHO-K1 cells (cynomolgus monkey, UniProt A0M8R7 25-1381 (Papio anubis entry))
# T1 construct: also called cycMET; cyno C-MET+ CHO-K1 cells
# T1 sequence (A0M8R7 25-1381 S170N/I621T limits assumed): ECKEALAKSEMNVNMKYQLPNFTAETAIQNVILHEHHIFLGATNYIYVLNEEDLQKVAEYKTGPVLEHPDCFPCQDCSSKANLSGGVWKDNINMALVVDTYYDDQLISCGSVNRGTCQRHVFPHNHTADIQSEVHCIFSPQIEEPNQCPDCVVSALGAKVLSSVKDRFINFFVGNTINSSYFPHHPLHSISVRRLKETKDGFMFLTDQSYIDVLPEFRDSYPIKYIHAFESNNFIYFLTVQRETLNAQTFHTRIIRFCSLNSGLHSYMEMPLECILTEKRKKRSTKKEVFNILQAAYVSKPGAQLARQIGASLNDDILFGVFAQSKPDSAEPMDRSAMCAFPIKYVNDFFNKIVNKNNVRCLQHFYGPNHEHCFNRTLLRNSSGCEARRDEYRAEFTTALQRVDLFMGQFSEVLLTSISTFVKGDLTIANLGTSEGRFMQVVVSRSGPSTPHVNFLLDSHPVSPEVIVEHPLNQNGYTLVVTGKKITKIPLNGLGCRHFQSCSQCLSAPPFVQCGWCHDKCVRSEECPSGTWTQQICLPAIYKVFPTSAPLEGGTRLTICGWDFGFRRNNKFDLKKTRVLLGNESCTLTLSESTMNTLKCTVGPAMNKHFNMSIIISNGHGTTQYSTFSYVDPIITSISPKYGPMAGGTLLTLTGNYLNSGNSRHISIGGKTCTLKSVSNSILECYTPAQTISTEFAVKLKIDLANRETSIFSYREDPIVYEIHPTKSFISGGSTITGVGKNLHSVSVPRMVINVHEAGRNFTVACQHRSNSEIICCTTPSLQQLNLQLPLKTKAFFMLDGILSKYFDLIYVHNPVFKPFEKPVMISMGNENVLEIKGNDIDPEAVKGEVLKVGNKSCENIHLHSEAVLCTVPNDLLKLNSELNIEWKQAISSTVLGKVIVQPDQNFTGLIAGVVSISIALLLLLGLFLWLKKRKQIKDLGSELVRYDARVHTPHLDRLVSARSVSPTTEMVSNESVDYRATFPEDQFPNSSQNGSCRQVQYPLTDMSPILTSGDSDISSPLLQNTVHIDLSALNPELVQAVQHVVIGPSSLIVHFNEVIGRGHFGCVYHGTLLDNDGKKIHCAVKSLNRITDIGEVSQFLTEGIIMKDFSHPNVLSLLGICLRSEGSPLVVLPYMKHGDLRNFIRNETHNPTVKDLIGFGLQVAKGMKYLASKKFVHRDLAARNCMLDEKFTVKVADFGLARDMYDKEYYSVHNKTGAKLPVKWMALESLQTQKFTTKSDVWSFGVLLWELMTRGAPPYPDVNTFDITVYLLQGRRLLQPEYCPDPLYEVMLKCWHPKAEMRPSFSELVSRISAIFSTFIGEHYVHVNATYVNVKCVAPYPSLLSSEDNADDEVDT
# ASSAY NAME: flow cytometry, C-MET CHO-K1 cells
QUANTITY: EC50 (nM)

# BINDER, QUANTITY, READOUT NUMBER
records = [
    ("04E10 (antibody, IgG4, V domains shown) VH: QVQLVQSGAEVKKPGASVKVSCKASGYIFTSYTMHWVRQAPGQGLEWMGWIKPNNGSASYAQKFQGRVTMTRDTSTSTVYMELSSLRSEDTAVYYCARSEITTEEDYWGQGTLVTVSS VL: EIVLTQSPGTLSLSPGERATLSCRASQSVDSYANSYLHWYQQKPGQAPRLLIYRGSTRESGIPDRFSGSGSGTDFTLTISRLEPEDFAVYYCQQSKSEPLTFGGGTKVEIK", "EC50", 2.94),
    ("MH5 (antibody, IgG4, V domains shown) VH: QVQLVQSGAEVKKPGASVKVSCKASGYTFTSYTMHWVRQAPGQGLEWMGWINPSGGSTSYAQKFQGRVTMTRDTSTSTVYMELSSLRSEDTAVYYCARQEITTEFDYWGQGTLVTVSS VL: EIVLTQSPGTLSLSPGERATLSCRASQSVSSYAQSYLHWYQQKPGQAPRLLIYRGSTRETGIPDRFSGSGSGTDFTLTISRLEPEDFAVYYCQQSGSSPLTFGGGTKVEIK", "EC50", 0.3),
    ("08B12 (antibody, IgG4, V domains shown) VH: QVQLVQSGAEVKKPGASVKVSCKASGYIFTAYSMHWVRQAPGQGLEWMGWIKPNNGSTNYAQKFQGRVTMTRDTSTSTVYMELSSLRSEDTAVYYCARTEITTEFDYWGQGTLVTVSS VL: EIVLTQSPGTLSLSPGERATLSCRASQSVDSYANSYLHWYQQKPGQAPRLLIYRGSTRETGIPDRFSGSGSGTDFTLTISRLEPEDFAVYYCQQSKSDPLTFGGGTKVEIK", "EC50", 1.34),
    ("08G07 (antibody, human IgG4, V domains shown) VH: QVQLVQSGAEVKKPGASVKVSCKASGYTFTSYTMHWVRQAPGQGLEWMGWINPSGGLANYAQKFQGRVTMTRDTSTSTVYMELSSLRSEDTAVYYCARSEITTDFDYWGQGTLVTVSS VL: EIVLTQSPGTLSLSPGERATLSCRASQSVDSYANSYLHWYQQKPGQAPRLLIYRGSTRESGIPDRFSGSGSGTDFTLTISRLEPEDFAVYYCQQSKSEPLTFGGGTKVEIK", "EC50", 0.68),
    ("MH7 (antibody, human IgG4, V domains shown) VH: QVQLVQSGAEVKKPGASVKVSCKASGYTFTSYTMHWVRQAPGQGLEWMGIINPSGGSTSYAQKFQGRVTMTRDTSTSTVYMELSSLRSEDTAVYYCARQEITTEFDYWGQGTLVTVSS VL: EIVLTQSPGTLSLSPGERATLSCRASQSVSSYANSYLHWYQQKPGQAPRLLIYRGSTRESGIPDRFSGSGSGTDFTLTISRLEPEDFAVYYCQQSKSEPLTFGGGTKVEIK", "EC50", 0.54),
    ("09E04 (antibody, IgG4, V domains shown) VH: QVQLVQSGAEVKKPGASVKVSCKASGYIFTSYTMHWVRQAPGQGLEWMGWINPNGGSTSYAQKFQGRVTMTRDTSTSTVYMELSSLRSEDTAVYYCARQEITTEFDYWGQGTLVTVSS VL: EIVLTQSPGTLSLSPGERATLSCRASQSVESYANSYLHWYQQKPGQAPRLLIYRGSTRESGIPDRFSGSGSGTDFTLTISRLEPEDFAVYYCQQYGSEPLTFGGGTKVEIK", "EC50", 1.11),
    ("MH2 (antibody, IgG4, V domains shown) VH: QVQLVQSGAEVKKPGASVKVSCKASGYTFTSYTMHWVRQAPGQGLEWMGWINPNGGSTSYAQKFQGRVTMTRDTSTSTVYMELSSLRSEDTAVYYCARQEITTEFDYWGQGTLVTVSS VL: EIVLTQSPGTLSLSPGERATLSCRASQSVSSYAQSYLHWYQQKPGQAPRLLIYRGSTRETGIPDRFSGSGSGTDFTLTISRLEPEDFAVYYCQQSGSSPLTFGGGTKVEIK", "EC50", 0.34),
    ("MH6 (antibody, IgG4, V domains shown) VH: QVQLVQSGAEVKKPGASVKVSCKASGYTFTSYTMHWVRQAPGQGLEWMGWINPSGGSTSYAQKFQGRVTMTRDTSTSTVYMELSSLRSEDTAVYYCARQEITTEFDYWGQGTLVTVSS VL: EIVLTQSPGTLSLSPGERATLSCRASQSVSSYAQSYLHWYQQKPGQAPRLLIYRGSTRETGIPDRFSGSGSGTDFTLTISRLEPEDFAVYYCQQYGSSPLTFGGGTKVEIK", "EC50", 0.72),
    ("MH9 (antibody, IgG4, V domains shown) VH: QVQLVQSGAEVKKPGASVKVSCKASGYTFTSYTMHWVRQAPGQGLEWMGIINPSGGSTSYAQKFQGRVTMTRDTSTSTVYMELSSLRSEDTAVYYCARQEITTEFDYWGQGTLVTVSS VL: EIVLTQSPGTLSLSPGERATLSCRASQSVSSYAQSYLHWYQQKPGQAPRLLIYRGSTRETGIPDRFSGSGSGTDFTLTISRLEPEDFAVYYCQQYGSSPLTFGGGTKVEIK", "EC50", 0.65),
    ("MH1 (antibody, IgG4, V domains shown) VH: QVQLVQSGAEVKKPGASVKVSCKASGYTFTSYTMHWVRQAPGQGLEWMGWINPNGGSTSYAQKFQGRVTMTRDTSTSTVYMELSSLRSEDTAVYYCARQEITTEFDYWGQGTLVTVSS VL: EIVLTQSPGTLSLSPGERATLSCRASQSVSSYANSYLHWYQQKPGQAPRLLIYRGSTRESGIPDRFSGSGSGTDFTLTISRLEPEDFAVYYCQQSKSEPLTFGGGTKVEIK", "EC50", 0.26),
]
